# maps each entry to its pIC50
System: HepG2
Test: In vitro cytotoxicity, IC50 by MTT method, HepG2
Assay type: cell-based, human
Details: Homo sapiens; HepG2 cell strain; read-out: IC50 HepG2
Procedure: Culture medium powder RPMI1640 was dissolved in a proper amount of tri-distilled water according to the instruction of the product. […] It was the basic culture solution. […] The cells, at a concentration of 10^5/ml, were inoculated at a 96-pore culture plate. […] After that, OD value was identified with a Microplate Reader at the wavelength of 490 nm. The survival rate of the cells at various concentrations was calculated according to the following formula: […]
Conceptually, pIC50 converts a concentration in mol/L into minus its log10.

Examples with answers:
[
  {
    "cpd.smiles": "CCOC(=O)c1cc2c3ccccc3n(CC)c2c(C)n1",
    "pIC50": 4.10
  },
  {
    "cpd.smiles": "Cn1c2ccccc2c2cc(C(=O)O)ncc21",
    "pIC50": 3.82
  },
  {
    "cpd.smiles": "CCCCn1c2ccccc2c2ccncc21",
    "pIC50": 4.00
  },
  {
    "cpd.smiles": "CCCc1nc(C(=O)OCC)cc2c3ccccc3n(CCCc3ccccc3)c12",
    "pIC50": 3.92
  },
  {
    "cpd.smiles": "CCn1c2ccccc2c2cc(C(=O)O)nc(C)c21",
    "pIC50": 2.55
  }
]

Input: Give a short answer stating reported pIC50 for CCOC(=O)c1cc2c3ccccc3n(Cc3ccccc3)c2c(C)n1 .
Output: 2.70

====

# maps each entry to its melting point

Examples with answers:
[
  {
    "compound": "CCCc1nc(C(=O)O)cc2c3ccccc3n(CC)c12",
    "melting point": "189 to 191 °C"
  },
  {
    "compound": "CCOC(=O)c1cc2c3ccccc3n(CCCc3ccccc3)c2cn1",
    "melting point": "140 to 142 °C"
  },
  {
    "compound": "CCNC1(C(N)=O)C=C2C(=Nc3ccccc32)C=N1 (stereo not drawn) [Compound 19, 3-ethylamino-β-carboline-3-formamide]",
    "melting point": "233 to 236 °C"
  },
  {
    "compound": "CC(=O)COc1cc2c3ccccc3n(Cc3ccccc3)c2cn1",
    "melting point": "141 to 142 °C"
  },
  {
    "compound": "Cc1nc(C(=O)O)cc2c3ccccc3n(CCCc3ccccc3)c12",
    "melting point": "186 to 188 °C"
  },
  {
    "compound": "CCn1c2ccccc2c2cc(C(=O)O)nc(-c3ccccc3)c21",
    "melting point": "194 to 195 °C"
  },
  {
    "compound": "CCOC(=O)Nc1cc2c3ccccc3n(CC)c2cn1",
    "melting point": "217 to 218 °C"
  },
  {
    "compound": "COC(=O)c1cc2c3ccccc3n(Cc3ccccc3)c2cn1",
    "melting point": "187 to 188 °C"
  },
  {
    "compound": "CCCCOC(=O)c1cc2c3ccccc3n(CCCC)c2cn1 [Compound 40, butyl 9-butyl-β-carboline-3-carboxylate]",
    "melting point": "94 to 95 °C"
  },
  {
    "compound": "CCCc1nc(C(=O)OCC)cc2c3ccccc3n(C)c12",
    "melting point": "108 to 109 °C"
  }
]

Input: Give a short answer stating reported melting point for CCCc1nc(C(=O)OCC)cc2c3ccccc3n(CCCc3ccccc3)c12 .
Output: 92 to 93 °C

Input: Give a short answer stating reported melting point for CCCc1nc(C(=O)O)cc2c3ccccc3n(Cc3ccccc3)c12 .
Output: 193 to 194 °C

Input: Give a short answer stating reported melting point for CCOC(=O)c1cc2c3ccccc3n(CC)c2c(C)n1 .
Output: 96 to 98 °C

====

# maps each entry to its Weight of the tumor X ± SD, First time
tested on: S180 sarcoma; settings: S180 sarcoma; Dosage 100 (mg/ml), ip × 10qd; first time
Respond numerically; units are g and should not be typed.

Input: Print S180 sarcoma Weight of the tumor X ± SD, First time for O=C(O)c1cc2c(cn1)[nH]c1ccccc12 [Compound 17, β-carboline-3-carboxylic acid] .
Output: 1.73

====

test system: Hela; test: In vitro cytotoxicity, IC50 by MTT method, Hela; assay type: cell-based; settings: Homo sapiens; Hela cell strain; read-out: IC50 Hela
# maps each entry to its IC50
Respond numerically; units are µM and should not be typed.

Input: Give a short answer stating reported IC50 for CCOC(=O)c1cc2c3ccccc3n(CC)c2c(C)n1 .
Output: 60

====

# maps each entry to its IC50
test system: Bel-7402; assay: In vitro cytotoxicity, IC50 by MTT method, Bel-7402; assay type: cell-based; conditions: Homo sapiens, Bel-7402; Bel7402 cell strain; read-out: IC50 Bel7402
Respond numerically; units are µM and should not be typed.

Examples with answers:
[
  {
    "compound": "Cc1nc(C(=O)O)cc2c3ccccc3n(C)c12",
    "assay.value": 1500
  },
  {
    "compound": "CCOC(=O)c1cc2c3ccccc3n(CCCc3ccccc3)c2cn1",
    "assay.value": 387
  },
  {
    "compound": "CCCCn1c2ccccc2c2cc(C(=O)O)ncc21",
    "assay.value": 90
  },
  {
    "compound": "Cn1c2ccccc2c2ccncc21",
    "assay.value": 300
  },
  {
    "compound": "CCOC(=O)c1cc2c3ccccc3n(Cc3ccccc3)c2c(C)n1",
    "assay.value": 210
  },
  {
    "compound": "COC(=O)c1cc2c3ccccc3n(Cc3ccccc3)c2cn1",
    "assay.value": 60
  },
  {
    "compound": "CCCc1nc(C(=O)OCC)cc2c3ccccc3n(C)c12",
    "assay.value": 460
  },
  {
    "compound": "CCn1c2ccccc2c2cc(C(=O)O)nc(-c3ccccc3)c21",
    "assay.value": 140
  }
]

Input: Print Bel-7402 IC50 for CCn1c2ccccc2c2cc(C(=O)OC)nc(-c3ccccc3)c21 .
Output: 380

Input: Print Bel-7402 IC50 for CCn1c2ccccc2c2cc(C(=O)O)nc(C)c21 .
Output: 1820

Input: Print Bel-7402 IC50 for CCOC(=O)c1cc2c3ccccc3n(Cc3ccccc3)c2cn1 [Compound 33, ethyl 9-benzyl-β-carboline-3-carboxylate] .
Output: 340

Input: Print Bel-7402 IC50 for CCCc1nc(C(=O)OCC)cc2c3ccccc3n(CCCc3ccccc3)c12 .
Output: 910

Input: Print Bel-7402 IC50 for CCCc1nc(C(=O)OCC)cc2c3ccccc3n(Cc3ccccc3)c12 .
Output: 1010

Input: Print Bel-7402 IC50 for CCOC(=O)c1cc2c3ccccc3n(CCCc3ccccc3)c2c(C)n1 .
Output: 180

Input: Print Bel-7402 IC50 for OCc1cc2c3ccccc3n(Cc3ccccc3)c2cn1 [Compound 42, 9-benzyl-3-hydroxymethyl-β-carboline] .
Output: 110

Input: Print Bel-7402 IC50 for CCn1c2ccccc2c2cc(C(=O)O)ncc21 .
Output: 230

Input: Print Bel-7402 IC50 for Cn1c2ccccc2c2cc(C(=O)O)nc(-c3ccccc3)c21 .
Output: 280

Input: Print Bel-7402 IC50 for CCCCOC(=O)c1cc2c3ccccc3n(CCCC)c2cn1 [Compound 40, butyl 9-butyl-β-carboline-3-carboxylate] .
Output: 1080

====

# maps each entry to its pIC50
system: NIH3T3; assay: In vitro cytotoxicity, IC50 by MTT method, NIH3T3; assay type: cell-based; settings: Mus musculus; NIH3T3 cell strain; read-out: IC50 NIH3T3
Conceptually, pIC50 converts a concentration in mol/L into minus its log10.

Examples with answers:
[
  {
    "compound": "CCOC(=O)Nc1cc2c3ccccc3n(Cc3ccccc3)c2cn1",
    "test.system": "NIH3T3",
    "pIC50": 2.75
  },
  {
    "compound": "c1ccc(Cn2c3ccccc3c3ccncc32)cc1",
    "test.system": "NIH3T3",
    "pIC50": 3.96
  },
  {
    "compound": "CCCc1nc(C(=O)O)cc2c3ccccc3n(C)c12",
    "test.system": "NIH3T3",
    "pIC50": 3.24
  },
  {
    "compound": "CCCc1nc(C(=O)O)cc2c3ccccc3n(CC)c12",
    "test.system": "NIH3T3",
    "pIC50": 3.41
  },
  {
    "compound": "COC(=O)c1cc2c3ccccc3n(C)c2cn1",
    "test.system": "NIH3T3",
    "pIC50": 4.05
  }
]

Input: Give a short answer stating reported pIC50 for CCOC(=O)c1cc2c3ccccc3n(CC)c2cn1 [Compound 31, ethyl 9-ethyl-β-carboline-3-carboxylate] .
Output: 4.00

Input: Give a short answer stating reported pIC50 for CCCc1nc(C(=O)OCC)cc2c3ccccc3n(CC)c12 .
Output: 4.00

Input: Give a short answer stating reported pIC50 for CCCc1nc(C(=O)O)cc2c3ccccc3n(Cc3ccccc3)c12 .
Output: 3.80
